Test: Bioactivation studies in rat liver S9 fraction
Assay type: in vitro ADME
Conditions: Sprague-Dawley, rat, liver S9 fraction, pH 7.4, cofactors: None, rat liver S9 1 mg/mL, read-out: SP-8356 (% Remaining at 60 min)
experimental.readout: remaining at 1 h, 5 µM

compound	experimental.readout	reported.result
COc1cc(/C=C/C2=CC(=O)[C@H]3C[C@@H]2C3(C)C)cc(O)c1O [SP-8356]	remaining at 1 h, 5 µM	~20%

###

Test: Metabolic stability in dog liver S9 fraction
Assay type: in vitro ADME
Settings: Beagle, dog, liver S9 fraction, dog liver S9, −Cofactors, 1 μM

compound	half-life at 1 µM
COc1cc(/C=C/C2=CC(=O)[C@H]3C[C@@H]2C3(C)C)cc(O)c1O [SP-8356]	< 30 min

###

Assay: Bioactivation studies in rat liver S9 fraction
Type: in vitro ADME
Conditions: Sprague-Dawley, rat, liver S9 fraction, pH 7.4, cofactors: GSH + NADPH, rat liver S9 1 mg/mL, read-out: SP-8356 (% Remaining at 60 min)

compound.smiles	remaining at 1 h, 5 µM (%)
COc1cc(/C=C/C2=CC(=O)[C@H]3C[C@@H]2C3(C)C)cc(O)c1O	18
